Assay Remarks: Stability of mouse liver microsomes in vitro
Format: in vitro ADME

>  <Compound>
Cc1c(C(=O)Nc2ccc(F)c(C#N)c2)c(C)n(C)c1C(=O)C(=O)NC1(C(F)(F)F)COC1 [Example 25]

>  <Remaining (%) at 60 min>
50.8

$$$$
>  <Compound>
Cc1c(C(=O)Nc2ccc(F)c(C#N)c2)c(C)n(C)c1C(=O)C(=O)NC1(C)COC1 [Example 6]

>  <Remaining (%) at 60 min>
55

$$$$
>  <Compound>
Cc1c(C(=O)Nc2ccc(F)c(N)c2)c(C)n(C)c1C(=O)C(=O)N[C@@H](C)C(F)(F)F [Example 42]

>  <Remaining (%) at 60 min>
61.9

$$$$
>  <Compound>
Cc1c(C(=O)Nc2ccc(F)c(C#N)c2)c(C)n(C)c1C(=O)C(=O)N[C@@H](C)C(F)(F)F [Example 12]

>  <Remaining (%) at 60 min>
67.1

$$$$

###

Assay Remarks: In vivo pharmacokinetic (PK) study in Beagle dog
Parameters: species or system Beagle dogs
Measurement Setup: plasma, Beagle dogs, PO 5 mg/kg
Reported Property: Tmax (h)

>  <Structure String>
Cc1c(C(=O)Nc2ccc(F)c(C#N)c2)c(C)n(C)c1C(=O)C(=O)N[C@@H](C)C(F)(F)F

>  <Unit Of Measure>
h

>  <Readout Value>
1.67

$$$$

###

Listed below: Remaining (%) at 60 min values for each entry.
Assay Remarks: Stability of rat liver microsomes in vitro
Assay type: in vitro ADME
Reported Property: Remaining (%) at 60 min

>  <Compound>
Cc1c(C(=O)Nc2ccc(F)c(C#N)c2)c(C)n(C)c1C(=O)C(=O)N[C@@H](C)C(F)(F)F

>  <Readout Value>
65.0

$$$$
>  <Compound>
Cc1c(C(=O)Nc2ccc(F)c(C#N)c2)c(C)n(C)c1C(=O)C(=O)NC1(C(F)(F)F)COC1

>  <Readout Value>
52.0

$$$$
>  <Compound>
Cc1c(C(=O)Nc2ccc(F)c(C#N)c2)c(Cl)n(C)c1C(=O)C(=O)N[C@@H](C)C(F)(F)F

>  <Readout Value>
88.7

$$$$
>  <Compound>
Cc1c(C(=O)Nc2ccc(F)c(C#N)c2)c(C)n(C)c1C(=O)C(=O)NC1CCOC1 (stereo not shown)

>  <Readout Value>
70.5

$$$$

###

Listed below: Remaining (%) at 60 min values for each entry.
Assay Remarks: Stability of human liver microsomes in vitro
Assay type: in vitro ADME
Reported Property: Remaining (%) at 60 min

>  <Molecule>
Cc1c(C(=O)Nc2ccc(F)c(N)c2)c(C)n(C)c1C(=O)C(=O)N[C@@H](C)C(F)(F)F

>  <Readout Value>
102%

$$$$
>  <Molecule>
C#CCNC(=O)C(=O)c1c(C)c(C(=O)Nc2ccc(F)c(C#N)c2)c(C)n1C

>  <Readout Value>
69%

$$$$
>  <Molecule>
Cc1c(C(=O)Nc2ccc(F)c(C#N)c2)c(C)n(C)c1C(=O)C(=O)NC1CCOC1 (stereo not drawn)

>  <Readout Value>
83.8%

$$$$

###

Listed below: Remaining (%) at 60 min values for each entry.
Assay Remarks: Stability of rat liver microsomes in vitro
Type: in vitro ADME
Reported Property: Remaining (%) at 60 min

>  <Structure String>
Cc1c(C(=O)Nc2ccc(F)c(C#N)c2)c(C)n(C)c1C(=O)C(=O)NC1(C)COC1

>  <Reported Property>
Remaining (%) at 60 min

>  <Readout Value>
74.9

$$$$
>  <Structure String>
C#CCNC(=O)C(=O)c1c(C)c(C(=O)Nc2ccc(F)c(C#N)c2)c(C)n1C

>  <Reported Property>
Remaining (%) at 60 min

>  <Readout Value>
44

$$$$
>  <Structure String>
Cc1c(C(=O)Nc2ccc(F)c(N)c2)c(C)n(C)c1C(=O)C(=O)N[C@@H](C)C(F)(F)F

>  <Reported Property>
Remaining (%) at 60 min

>  <Readout Value>
85.3

$$$$
